Below, each entry is listed with its recorded speed of sound.
Measurement Context: 298.15 K; 100 kPa; Liquid; Frequency=3 MHz; Sing-around technique in a fixed-path interferometer
Respond numerically; units are m/s and should not be typed.

Compound	Measured Endpoint	Observed
CCCCO	speed of sound	1242.4
CC(C)CO	speed of sound	1189
CC(C)(C)O	speed of sound	1121.4

Read the next record carefully.
Field speed of sound (entry CCCCCCCC[n+]1ccn(C)c1.F[B-](F)(F)F [1-methyl-3-octylimidazolium tetrafluoroborate] ) reads 1485.1

---

Below, each entry is listed with its recorded refractive index.
Procedure Text: refractive index (Na D-line) (dimensionless)
Measurement Context: 298.15 K; 100 kPa; Liquid; Standard Abbe refractometry
Field format: numeric only.

Would you please look over these solved cases?
Compound	refractive index
CCCCO	1.39728
CCCCCCCC[n+]1ccn(C)c1.F[B-](F)(F)F [1-methyl-3-octylimidazolium tetrafluoroborate]	1.43253

Field refractive index (entry CC(C)(C)O ) reads 1.38488

Field refractive index (entry CC(C)CO ) reads 1.39408

---

Measurement Context: 308.15 K; 100 kPa; Liquid; Vibrating tube method
± gives the expanded uncertainty stated by the source.
Below, each entry is listed with its recorded mass density.

Would you please look over these solved cases?
Compound	mass density
CC(C)CO	790.63 ± 0.23 kg/m3
CCCCO	798.05 ± 0.2 kg/m3
CCCCCCCC[n+]1ccn(C)c1.F[B-](F)(F)F [1-methyl-3-octylimidazolium tetrafluoroborate]	1098.32 ± 1 kg/m3

Field mass density (entry CC(C)(C)O ) reads 770.21 ± 0.23 kg/m3

---

Procedure Text: refractive index (Na D-line) (dimensionless)
Measurement Context: 308.15 K; 100 kPa; Liquid; Standard Abbe refractometry
Measured Endpoint: refractive index
Field format: numeric only.

Compound	Observed
CCCCO	1.39324
CC(C)(C)O	1.37985
CC(C)CO	1.38925

Field refractive index (entry CCCCCCCC[n+]1ccn(C)c1.F[B-](F)(F)F [1-methyl-3-octylimidazolium tetrafluoroborate] ) reads 1.42984

---

Measurement Context: 298.15 K; 100 kPa; Liquid; Vibrating tube method
Measured Endpoint: mass density (kg/m3)
Respond numerically; units are kg/m3 and should not be typed.

Field mass density (entry CC(C)CO [2-methyl-1-propanol] ) reads 797.82

Field mass density (entry CCCCCCCC[n+]1ccn(C)c1.F[B-](F)(F)F [1-methyl-3-octylimidazolium tetrafluoroborate] ) reads 1105.02

Field mass density (entry CCCCO [butan-1-ol] ) reads 805.76

Field mass density (entry CC(C)(C)O [2-methylpropan-2-ol] ) reads 780.72

---

Procedure Text: refractive index (Na D-line) (dimensionless)
Measurement Context: 318.15 K; 100 kPa; Liquid; Standard Abbe refractometry
Below, each entry is listed with its recorded refractive index.
Field format: numeric only.

Would you please look over these solved cases?
Compound	Observed
CCCCO [butan-1-ol]	1.38911
CC(C)CO [2-methyl-1-propanol]	1.38444
CCCCCCCC[n+]1ccn(C)c1.F[B-](F)(F)F [1-methyl-3-octylimidazolium tetrafluoroborate]	1.42715

Field refractive index (entry CC(C)(C)O [2-methylpropan-2-ol] ) reads 1.37402
